Listing: self-splicing fitness (ln) of selected sequences
# Procedure Summary: self-splicing fitness, log relative to wild type (ln ratio); higher = more splicing; Tetrahymena group I intron in knt gene, E. coli kanamycin selection, DiMSum; sequences stand for … in CUCUCU…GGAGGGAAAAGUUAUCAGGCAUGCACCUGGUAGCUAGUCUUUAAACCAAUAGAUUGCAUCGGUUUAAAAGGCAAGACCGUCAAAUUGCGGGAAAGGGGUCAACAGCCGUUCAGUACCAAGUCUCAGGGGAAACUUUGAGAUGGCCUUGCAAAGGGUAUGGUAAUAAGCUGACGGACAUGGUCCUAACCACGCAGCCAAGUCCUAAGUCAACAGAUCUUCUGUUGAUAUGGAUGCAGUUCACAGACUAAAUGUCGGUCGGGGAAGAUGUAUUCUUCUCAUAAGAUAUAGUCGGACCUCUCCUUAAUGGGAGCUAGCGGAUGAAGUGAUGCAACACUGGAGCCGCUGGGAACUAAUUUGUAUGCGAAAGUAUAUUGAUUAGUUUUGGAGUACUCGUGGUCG;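 note: selection with 25 µg/mL kanamycin versus none on LB agar overnight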
# Conditions Used: 30 °C
Quantity: self-splicing fitness (ln)

• GGCAAGCAAUAUUACGCGGA = -0.732
• CUAAAGCAAUAUUACGAAGA = -2.46
• CGAGAGCAAUAUUACGGCUG = -1.18
• UUUCAGCAAUAUUACGGUGC = -3.27
• CGCCAGCAAUAUUACGUGGC = -3.72
• GUCUAGCAAUAUUACGAGUU = -2.13
• AGUUAGCAAUAUUACGCGCU = -3.13
• AAUGAGCAAUAUUACGGAAU = -4.25
• CGACAGCAAUAUUACGCGUG = -1.55
• GUGUAGCAAUAUUACGCUGA = -1.22
• AAGCAGCAAUAUUACGACUA = -0.00923
• GUGAAGCAAUAUUACGGCAU = 0.0954
• UUGCAGCAAUAUUACGAGAU = -3.6
• AUACAGCAAUAUUACGGUUG = -2.35
• UAAUAGCAAUAUUACGAUGA = -2.56
• CCAAAGCAAUAUUACGAGGC = -4.23
• UAUGAGCAAUAUUACGUAGC = -3.71
• UCUCAGCAAUAUUACGAAUC = -3.99
• GUCUAGCAAUAUUACGUUUA = -0.64
• UUUCAGCAAUAUUACGGUCG = -0.269
• GACCAGCAAUAUUACGCAUG = -1.2
• UUCAAGCAAUAUUACGAUCG = -1.26
• CGUGAGCAAUAUUACGACUG = -0.73
• AAACAGCAAUAUUACGCUGA = -3.16
• UGCAAGCAAUAUUACGGAAG = -3.38
• GUGAAGCAAUAUUACGGCUC = -0.996
• ACGGAGCAAUAUUACGUAAU = -3.61
• GACUAGCAAUAUUACGAGGU = -2.34
• AGCAAGCAAUAUUACGACCG = -0.988
• GCGAAGCAAUAUUACGGUUC = -3.23
• CUUGAGCAAUAUUACGCUAU = -3.44
• GUCAAGCAAUAUUACGUGAC = -5.1
• UCGGAGCAAUAUUACGAGUG = -2.47
• UUGCAGCAAUAUUACGCGAA = -0.925
• UCUUAGCAAUAUUACGAUUU = -3.07
• AUUAAGCAAUAUUACGCCCA = -1.11
• UAUCAGCAAUAUUACGUUAU = -3.07
• CAUUAGCAAUAUUACGAUUA = -1.47
• GAAAAGCAAUAUUACGUCUG = -0.835
• CAUGAGCAAUAUUACGCAGC = -3.08
• GGAGAGCAAUAUUACGUUGU = -4.01
• AGAUAGCAAUAUUACGAAGU = -3.27
• CUACAGCAAUAUUACGCUAG = -3.58
• CGCGAGCAAUAUUACGUCGC = -2.79
• GACGAGCAAUAUUACGCACU = -1.32
• GGUCAGCAAUAUUACGUUUC = 0.000828
• UGUCAGCAAUAUUACGCAUG = -0.692
• AUAUAGCAAUAUUACGCGCG = -0.915
• UGAAAGCAAUAUUACGGGAG = -1.49
• UGGGAGCAAUAUUACGUUUG = -3.75
• AUCUAGCAAUAUUACGACCG = -0.961
• GUAAAGCAAUAUUACGUUGA = -1.97
• UAGGAGCAAUAUUACGGCGG = -2.34
• CUUGAGCAAUAUUACGAGCA = -2.65
• CAACAGCAAUAUUACGUGUA = -2.41
• GACAAGCAAUAUUACGCUCC = -3.8
• CGAUAGCAAUAUUACGAUGC = -4.1
• CUCAAGCAAUAUUACGAAUG = -2.96
• AGCGAGCAAUAUUACGCACC = -0.941
• AUCGAGCAAUAUUACGAUUC = -2.98
• AACGAGCAAUAUUACGGGGG = -3.29
• CCCAAGCAAUAUUACGAACA = -3.02
• CAGCAGCAAUAUUACGCAAA = -3.14
• UCAUAGCAAUAUUACGCCCG = -0.515
• GAGUAGCAAUAUUACGCCAC = -3.64
• ACUAAGCAAUAUUACGCACC = -0.776
• GGACAGCAAUAUUACGUCAA = -0.0403
